- TGT: Neurotensin receptor type 1 (Homo sapiens)
- Sequence (P30989 whole entry): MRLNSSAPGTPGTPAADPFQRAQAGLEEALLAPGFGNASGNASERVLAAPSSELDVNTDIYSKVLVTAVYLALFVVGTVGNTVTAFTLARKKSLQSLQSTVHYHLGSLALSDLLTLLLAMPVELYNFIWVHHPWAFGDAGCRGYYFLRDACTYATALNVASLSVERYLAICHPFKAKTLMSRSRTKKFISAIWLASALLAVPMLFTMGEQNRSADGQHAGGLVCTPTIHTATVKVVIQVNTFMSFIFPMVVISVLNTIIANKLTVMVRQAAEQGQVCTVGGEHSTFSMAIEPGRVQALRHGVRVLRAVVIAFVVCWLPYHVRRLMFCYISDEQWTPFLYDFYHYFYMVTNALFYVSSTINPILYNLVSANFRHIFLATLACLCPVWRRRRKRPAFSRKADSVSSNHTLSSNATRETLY
- TEST_METHOD_NOTES: Agonist activity at NTR1 expressed in CHOK1 cells assessed as stimulation of calcium mobilization at 10 uM relative to neurotensin
- Type: functional, cell-based
- CONDITION_SUMMARY: CHO-K1
Activity calls are given as the source filed them. No cut-off for these calls is given here.
PARAMETER: Activity

smiles_notation=CC[C@H](C)[C@H](NC(=O)c1cc(-c2c(OC)cccc2OC)n(-c2ccnc3cc(Cl)ccc23)n1)C(=O)O reported_result=inactive
smiles_notation=CCCC[C@H](NC(=O)c1cc(-c2c(OC)cccc2OC)n(-c2ccnc3cc(Cl)ccc23)n1)C(=O)O reported_result=20%
smiles_notation=COc1ccccc1-c1cc(C(=O)N[C@@H](CC(C)C)C(=O)O)nn1-c1ccnc2cc(Cl)ccc12 reported_result=86%
smiles_notation=CC[C@H](NC(=O)c1cc(-c2c(OC)cccc2OC)n(-c2ccnc3cc(Cl)ccc23)n1)C(=O)O reported_result=11%
smiles_notation=COc1cccc(OC)c1-c1cc(C(=O)NCC(=O)O)nn1-c1ccnc2cc(Cl)ccc12 reported_result=inactive

Batch of 7 compounds: report Activity for each.
1. CC(C)C[C@H](NC(=O)c1cc(-c2ccccc2)n(-c2ccnc3cc(Cl)ccc23)n1)C(=O)O
2. CCC[C@H](NC(=O)c1cc(-c2c(OC)cccc2OC)n(-c2ccnc3cc(Cl)ccc23)n1)C(=O)O
3. COc1cccc(OC)c1-c1cc(C(=O)N[C@H](CC(C)C)C(=O)O)nn1-c1ccnc2cc(Cl)ccc12
4. COc1cccc(OC)c1-c1cc(C(=O)N[C@@H](Cc2ccccc2)C(=O)O)nn1-c1ccnc2cc(Cl)ccc12
5. CC(C)C[C@H](NC(=O)c1cc(-c2ccccc2OC(F)(F)F)n(-c2ccnc3cc(Cl)ccc23)n1)C(=O)O
6. COc1cccc(OC)c1-c1cc(C(=O)N[C@@H](CC(C)C)C(=O)O)nn1-c1cccc2ccccc12
7. COc1cccc(OC)c1-c1cc(C(=O)N[C@H](C(=O)O)C(C)C)nn1-c1ccnc2cc(Cl)ccc12

["62%", "18%", "57%", "inactive", "84%", "inactive", "5%"]

Report Activity from Neurotensin receptor type 1 (Homo sapiens) testing of COc1cccc(OC)c1-c1cc(C(=O)N[C@H](C(=O)O)C2CCCCC2)nn1-c1ccnc2cc(Cl)ccc12
inactive

====

- TGT: Neurotensin receptor type 1 (Homo sapiens)
- TEST_METHOD_NOTES: Agonist activity at NTR1 expressed in CHOK1 cells by calcium mobilization assay
PARAMETER: EC50 (nM)
Answers are plain numbers, in nM.

Please review the following examples before continuing.
molecule=CC(C)C[C@H](NC(=O)c1cc(-c2ccccc2OC(F)(F)F)n(-c2ccnc3cc(Cl)ccc23)n1)C(=O)O tgt="Neurotensin receptor type 1 (Homo sapiens)" reported_result=1210
molecule=COc1ccccc1-c1cc(C(=O)N[C@@H](CC(C)C)C(=O)O)nn1-c1ccnc2cc(Cl)ccc12 tgt="Neurotensin receptor type 1 (Homo sapiens)" reported_result=220
molecule=COc1cccc(OC)c1-c1cc(C(=O)N[C@@H](CC(C)C)C(=O)O)nn1-c1ccnc2cc(Cl)ccc12 tgt="Neurotensin receptor type 1 (Homo sapiens)" reported_result=67

Batch of 2 molecules: report EC50 for each.
1. CC(C)CC(NC(=O)OCC1c2ccccc2-c2ccccc21)C(=O)O (configuration not stated)
2. CC(C)C[C@H](NC(=O)c1cc(-c2ccccc2)n(-c2ccnc3cc(Cl)ccc23)n1)C(=O)O

1: 216; 2: 2040

Batch of 2 molecules: report EC50 for each.
1. COc1cccc(OC)c1-c1cc(C(=O)N[C@H](CC(C)C)C(=O)O)nn1-c1ccnc2cc(Cl)ccc12
2. CC(C)C[C@H](NC(=O)Cn1ccc2cc(NS(=O)(=O)c3cccc4cccnc34)ccc21)C(=O)O

1. 986
2. 178
